For each record, write down the corresponding inhibition of growth at 10 µM.
Test system: SK-MEL-5
Test: Antiproliferative activity against human SK-MEL-5 cells assessed as growth inhibition at 10 uM measured after 48 hrs by NCI protocol based SRB assay relative to control
Assay type: functional
Conditions: read-out: GI
One number for each entry, in %.

// input: 6 compounds below; output: inhibition of growth at 10 µM for each
1. Cc1ccc(-c2nc3c(c(-c4ccccc4)nn3-c3ccccc3)c(-c3ccc(O)cc3)c2C#N)cc1
2. N#Cc1c(-c2ccc(Cl)cc2)nc2c(c(-c3ccccc3)nn2-c2ccccc2)c1-c1ccc(O)cc1
3. N#Cc1c(-c2ccco2)nc2c(c(-c3ccccc3)nn2-c2ccccc2)c1-c1ccc(O)cc1
4. COc1cc(-c2c(C#N)c(-c3ccco3)nc3c2c(-c2ccccc2)nn3-c2ccccc2)ccc1O
5. COc1cc(-c2c(C#N)c(-c3ccccc3)nc3c2c(-c2ccccc2)nn3-c2ccccc2)ccc1O
6. N#Cc1c(-c2ccccc2)nc2c(c(-c3ccccc3)nn2-c2ccccc2)c1-c1ccc(O)cc1

[out]
[23, 44, 13, 20, 21, 42]
